Test: Log D distribution coefficient (PBS buffer/octanol)
Format: physicochemical
Details: pH 7.2, pH 7.2, 3 mL PBS Buffer: 1 mL Octanol
Method: Compound 1 has a Log D distribution coefficient at pH 7.2 of −0.07 (3 mL PBS Buffer: 1 mL Octanol) and −0.39 (2 mL PBS Buffer: 2 mL Octanol), where PBS is phosphate buffer solution.
Structures can show the parent of a compound that is named as a salt.
recorded metric: logD
# answer = number (no unit)

I have this compound here, CC1(C)SC(Nc2ccccc2O)=N[C@@H]1C(=O)O [Compound 1, mono-hydrochloride] , and I need its recorded logD.
-0.07

---

experiment: Rat 28-day GLP repeat dose PO study (toxicokinetics); assay type: in vivo; settings: female, rat, in vivo, po, 1000 mg/kg, Day 14, F, 1000 mg/kg PO; read-out: V/F (Vss/F)
Counter-ions that a name gives are not always drawn.
recorded metric: Vd/F (L/kg)
Express it in L/kg; write the number only.

I have this molecule here, CC1(C)SC(Nc2ccccc2O)=N[C@@H]1C(=O)O [Compound 1, mono-hydrochloride] , and I need its recorded Vd/F.
14

---

test: Dog 28-day repeat dose PO study; type: in vivo; details: male, beagle, dog, in vivo, po, 250 mg/kg, Day 28, 250 mg/kg PO, M; read-out: Cmax
Counter-ions that a name gives are not always drawn.
recorded metric: Cmax

I have this compound here, CC1(C)SC(Nc2ccccc2O)=N[C@@H]1C(=O)O [Compound 1, mono-hydrochloride] , and I need its recorded Cmax.
105 µg/mL

---

assay: in vivo; conditions: female, Sprague Dawley, rat, po, 100 mg/kg, Compound 1 Concentration in rat plasma, 100 mg/kg single PO, 0.5 h post-dose, individual animals
Where a name gives a salt, the structure may show the parent alone.
recorded metric: concentration at 0.5 h
Express the reported value numerically, then name its unit.

I have this molecule here, CC1(C)SC(Nc2ccccc2O)=N[C@@H]1C(=O)O [Compound 1, mono-hydrochloride] , and I need its recorded concentration at 0.5 h.
34300 ng/mL

---

assay: Rat 28-day GLP repeat dose PO study (toxicokinetics); type: in vivo; details: female, rat, in vivo, po, 1000 mg/kg, Day 28, F, 1000 mg/kg PO
Structures can show the parent of a compound that is named as a salt.
recorded metric: AUC (µg·h/mL)
Express it in µg·h/mL; write the number only.

I have this compound here, CC1(C)SC(Nc2ccccc2O)=N[C@@H]1C(=O)O [Compound 1, mono-hydrochloride] , and I need its recorded AUC.
736

---

experiment: Dog 7-day repeat dose PO study; assay type: in vivo; details: female, plasma, 350 mg/kg, Day 7, 350 mg/kg PO, F, N = 1
Counter-ions that a name gives are not always drawn.
recorded metric: AUC(0-t) (µg·h/mL)
Express it in µg·h/mL; write the number only.

I have this molecule here, CC1(C)SC(Nc2ccccc2O)=N[C@@H]1C(=O)O [Compound 1, mono-hydrochloride] , and I need its recorded AUC(0-t).
738

---

test: Rat 28-day GLP repeat dose PO study (toxicokinetics); assay type: in vivo; conditions: male, rat, in vivo, po, 1000 mg/kg, Day 1, M, 1000 mg/kg PO; read-out: tmax
Counter-ions that a name gives are not always drawn.
recorded metric: Tmax (h)
Express it in h; write the number only.

I have this compound here, CC1(C)SC(Nc2ccccc2O)=N[C@@H]1C(=O)O [Compound 1, mono-hydrochloride] , and I need its recorded Tmax.
1
